- System: MCF10A
- EXPERIMENT SUMMARY: percent viability (nuclei count relative to siNT); higher = more viable cells
- CONDITION SET: 20 nM; 72 h
VALUE TYPE: percent viability (%)
Numbers only, in %.

Reference set, count: 5
> print(dat)
                            sequence.string  target.of.assay  units  meas.value
1   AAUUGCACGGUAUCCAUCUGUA [hsa-miR-363-3p]           MCF10A      %        63.9
2  AGCAAAAUAAGCAAAUGGAAAA [hsa-miR-1468-3p]           MCF10A      %         128
3          CGCGCCGGGCCCGGGUU [hsa-miR-3195]           MCF10A      %        19.4
4         AAGCAGCUGCCUCUGAGGC [hsa-miR-646]           MCF10A      %        32.4
5   CGUGGAGGACGAGGAGGAGGC [hsa-miR-7847-3p]           MCF10A      %        67.5

# return percent viability for each item in the list
1. CGCCCCUCCUGCCCCCACAG [hsa-miR-4749-3p]
2. UUGGGGUGGAGGGCCAAGGAGC [hsa-miR-6819-5p]
3. UCAGCAUUCAUUGGCACCAGAGA [hsa-miR-7157-5p]
4. UCCCUGGAGUUUCUUCUU [hsa-miR-4308]
5. CAGGUAGAUAUUUGAUAGGCAU [hsa-miR-3927-3p]
6. ACCACUGACCGUUGACUGUACC [hsa-miR-181a-2-3p]
7. UUGCUCUGAGCUCCGAGAAAGC [hsa-miR-5691]

Reply:
1. 115
2. 3.49
3. 30.6
4. 53.7
5. 24.8
6. 120
7. 48.2

# return percent viability for each item in the list
1. CAGCCACAACUACCCUGCCACU [hsa-miR-449b-3p]
2. CACAGGCUUAGAAAAGACAGU [hsa-miR-4438]
3. CUGUAAUAUAAAUUUAAUUUAUU [hsa-miR-2054]
4. AAGGGCUUCCUCUCUGCAGGAC [hsa-miR-3158-3p]
5. AGAGCUGAGACUAGAAAGCCCA [hsa-miR-3160-3p]

Reply:
71.9
11.8
168
12.1
19.1

# return percent viability for each item in the list
1. AUAGUGGGAAGCUGGCAGAUUC [hsa-miR-4727-3p]
2. CUUCCCCCCAGUAAUCUUCAUC [hsa-miR-3679-3p]
3. AGGAUAGGAAGAAUGAAGUGCU [hsa-miR-5191]
4. CGGCAACAAGAAACUGCCUGAG [hsa-miR-196a-3p]
5. CUGGGAGGUCAAGGCUGCAGU [hsa-miR-1273h-5p]

Reply:
1. 16.6
2. 88.6
3. 40.6
4. 25.1
5. 38.1

# return percent viability for each item in the list
1. AGACAUCAAGAUCAGUCCCAAA [hsa-miR-3913-3p]
2. CUCUAGAGGGAAGCGCUUUCUG [hsa-miR-519c-5p]
3. CACAAGGUAUUGGUAUUACCU [hsa-miR-624-3p]
4. CUCAGUAGCCAGUGUAGAUCCU [hsa-miR-222-5p]
5. CAGGGCUCAGGGAUUGGAUGGAG [hsa-miR-5088]
6. GCUGAACUGGGCUGAGCUGGGC [hsa-miR-4539]
7. AGAGGACCCGUAGCUGCUAGAAGG [hsa-miR-4751]

Reply:
1. 21.7
2. 31.6
3. 21.1
4. 57.4
5. 77.7
6. 87
7. 106

----------
- Tested on: MCF10A
- EXPERIMENT SUMMARY: 5+ nucleoli phenotype percent effect (relative to siNT 0% and siKIF11 100%); higher = more cells with five or more nucleoli
- CONDITION SET: 20 nM; 72 h
# cutoff -20% applies to 5+ nucleoli phenotype percent effect; >= gives 1 (yes), < gives 0 (no)

> print(dat)
                            sequence.string    label
1       GGAGGUUGGGAAGGGCAGAG [hsa-miR-6086]  1 (yes)
2  AAGUGCCUCCUUUUAGAGUGUU [hsa-miR-519e-3p]  1 (yes)
3   AGGGCUUAGCUGCUUGUGAGCA [hsa-miR-27a-5p]  1 (yes)
4          AUGUGGGCUCAGGCUCA [hsa-miR-4296]   0 (no)
5   CCCGCAGGUGAGAUGAGGGCU [hsa-miR-6886-5p]   0 (no)

Task item: Assess whether reported 5+ nucleoli phenotype percent effect for UUGUGAAGAAAGAAAUUCUUA [hsa-miR-3611] sits at -20% or higher.
Reply: 1 (yes)

Task item: Assess whether reported 5+ nucleoli phenotype percent effect for GGGAUUCUGUAGCUUCCU [hsa-miR-4320] sits at -20% or higher.
Reply: 1 (yes)

Task item: Assess whether reported 5+ nucleoli phenotype percent effect for GAGACAGGUUCAUGCUGCUA [hsa-miR-4524b-3p] sits at -20% or higher.
Reply: 0 (no)

Task item: Assess whether reported 5+ nucleoli phenotype percent effect for AUAUGCCUGGCUAGCUCCUC [hsa-miR-4633-5p] sits at -20% or higher.
Reply: 0 (no)

Task item: Assess whether reported 5+ nucleoli phenotype percent effect for UAGACCAUCUUUCUAGAGUAU [hsa-miR-6502-3p] sits at -20% or higher.
Reply: 1 (yes)

Task item: Assess whether reported 5+ nucleoli phenotype percent effect for UAUGUAACACGGUCCACUAACC [hsa-miR-411-3p] sits at -20% or higher.
Reply: 1 (yes)

Task item: Assess whether reported 5+ nucleoli phenotype percent effect for UUUAGAUUGAACAUGAAGUUAG [hsa-miR-4760-5p] sits at -20% or higher.
Reply: 1 (yes)

----------
- Test system: MCF10A
- EXPERIMENT SUMMARY: one-nucleolus phenotype percent effect (relative to siNT 0% and siNOL11 100%); higher = more cells with one nucleolus (ribosome biogenesis inhibition)
- CONDITION SET: 20 nM; 72 h
# cutoff -10% applies to one-nucleolus phenotype percent effect; >= gives Criterion met, < gives Criterion not met

> print(dat)
                            sequence.string          label
1  UGGUCUGUCUCUGCCCUGGCAC [hsa-miR-6753-3p]  Criterion met

Task item: Assess whether reported one-nucleolus phenotype percent effect for UAAAGUGCUUAUAGUGCAGGUAG [hsa-miR-20a-5p] sits at -10% or higher.
Reply: Criterion not met

Task item: Assess whether reported one-nucleolus phenotype percent effect for CAAUGUUUCCACAGUGCAUCAC [hsa-miR-33a-3p] sits at -10% or higher.
Reply: Criterion not met

Task item: Assess whether reported one-nucleolus phenotype percent effect for AACAUCACAGCAAGUCUGUGCU [hsa-miR-499a-3p] sits at -10% or higher.
Reply: Criterion met

Task item: Assess whether reported one-nucleolus phenotype percent effect for UGUGAUAUCAUGGUUCCUGGGA [hsa-miR-3689b-5p] sits at -10% or higher.
Reply: Criterion met

Task item: Assess whether reported one-nucleolus phenotype percent effect for AUUGACACUUCUGUGAGUAGA [hsa-miR-514a-3p] sits at -10% or higher.
Reply: Criterion met

Task item: Assess whether reported one-nucleolus phenotype percent effect for CCAACCUAGGUGGUCAGAGUUG [hsa-miR-4714-3p] sits at -10% or higher.
Reply: Criterion not met

----------
- System: MCF10A
- EXPERIMENT SUMMARY: percent viability (nuclei count relative to siNT); higher = more viable cells
- CONDITION SET: 20 nM; 72 h
So I've got a bunch of sequences here, and I need their percent viability values.
Numbers only, in %.

Reference set, count: 5
> print(dat)
                            sequence.string  meas.value
1  GAGCCCCUCUCUGCUCUCCAG [hsa-miR-6769a-3p]        92.9
2  AAUAGGCCACGGAUCUGGGCAA [hsa-miR-1295b-3p]        13.8
3       GUGGCUGCACUCACUUCCUUC [hsa-miR-647]          46
4     CUAAUAGUAUCUACCACAAUAAA [hsa-miR-633]         107
5    CGCGGGCGCUCCUGGCCGCCGCC [hsa-miR-4767]        58.8

# return percent viability for each item in the list
1. GUCCAGUUUUCCCAGGAAUCCCU [hsa-miR-145-5p]
2. UCUUUGGUUAUCUAGCUGUAUGA [hsa-miR-9-5p]
3. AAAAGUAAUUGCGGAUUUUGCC [hsa-miR-548i]
4. AAUCAUACACGGUUGACCUAUU [hsa-miR-154-3p]
5. UCUGGGGUCUUGGGCCAUC [hsa-miR-7155-5p]
6. UGCCUCCCUGACAUUCCACAG [hsa-miR-6778-3p]

Reply:
1: 70.4; 2: 54.9; 3: 140; 4: 67.2; 5: 10.2; 6: 7.57

# return percent viability for each item in the list
1. UGGGCAGGGGCUUAUUGUAGGAG [hsa-miR-6721-5p]
2. AGACACUAUACGAGUCAUAU [hsa-miR-3117-5p]

Reply:
1: 21.3; 2: 120

# return percent viability for each item in the list
1. UAAGUGCUUCCAUGUUUUAGUAG [hsa-miR-302b-3p]
2. GAAAGUACAGAUCGGAUGGGU [hsa-miR-8054]
3. GCUUCUGUAGUGUAGUC [hsa-miR-3182]

Reply:
1. 74.9
2. 55.8
3. 57

# return percent viability for each item in the list
1. CCAAACCAGUCGUGCCUGUGG [hsa-miR-6715a-3p]
2. CUCCUCUGUUUUCUUUCCUAG [hsa-miR-6780a-3p]
3. AGCUGGUAAAAUGGAACCAAAU [hsa-miR-133a-5p]
4. ACUCUAGCUGCCAAAGGCGCU [hsa-miR-1251]
5. UCGGAUCCGUCUGAGCUUGGCU [hsa-miR-127-3p]
6. UGUGUCACUCGAUGACCACUGU [hsa-miR-597]
7. AAAAGUAAUUGCGGUCUUU [hsa-miR-548ap-5p]

Reply:
40.8
34.4
30.7
80.4
41.5
47.8
121

Task item: Return percent viability for the following sequence: UGGUCUGUUCAUUCUCUCUUUUUGGCC [hsa-miR-7107-3p]
Reply: 15
